assay: NCI Yeast Anticancer Drug Screen. Data for the mlh1 rad18 strain (AID 175)
conditions: S. cerevisiae mlh1 rad18 strain growth inhibition; at 50.0 µM (retest, dose inferred, filed as 5.0)
Compounds without any hit were thinned out: in the full panel of roughly 79,000, 15% have a hit. Activity calls are given as the source filed them. No stated cut-off is given here; in the data, active means growth inhibition above about 70%; inactive means the rest.
// one of class 1 = active, class 0 = inactive, no free text

// query Which outcome was entered for the molecule Cc1cc(I)nc2ccccc12 in this test?
// result class 0

// query Test call for this molecule, please: CCOc1cc2c(cc1O)/C(=N\OC)C[C@@H]1[C@@H]2CC[C@]2(C)[C@@H](O)CC[C@@H]12
// result class 0

// query Recorded test outcome, item NC(=S)Nc1ccc2c(c1)Cc1ccccc1-2
// result class 0

// query Test call, this molecule: c1ccc(-c2nc(N=C3N=c4ccccc4=N3)[nH]c2-c2ccccn2)nc1
// result class 1

// query I'd appreciate the recorded outcome for Cc1cccc2c(N)c3ccccc3nc12 from this test.
// result class 0

New cases:
// query Lab log entry: COc1cccc(NC(=O)C(C#N)=C(SC)SC)c1 — outcome as called in the assay?
// result class 0

// query Lab log entry: CCc1cccc(CC)c1N1C(=O)C=CC1=O — outcome as called in the assay?
// result class 1

// query What did the test return for N#CC(=C1SCS1)[N+](=O)[O-] ?
// result class 1

// query Per the assay record, what outcome was assigned to CCOc1ccc(Nc2nc3c(s2)C(=O)c2ccccc2C3=O)cc1 ?
// result class 1

---

assay: NCI Yeast Anticancer Drug Screen. Data for the mec2-1 strain (AID 157)
conditions: S. cerevisiae mec2-1 strain, at 5.0 µM (retest, dose inferred, filed as 0.5), hits give high values
About 79,000 compounds went through this panel and 15% of them were active in at least one assay; those are over-represented in the sample as a whole. Activity calls are given as the source filed them. No stated cut-off is given here; in the data, active means growth inhibition above about 70%; inactive means the rest.
endpoint label: growth inhibition

Known results for compounds:
// query Write down growth inhibition measured for item CCC(CC)(c1ccccc1)C(O)c1ccccc1 (configuration not stated)
// result -1% (inactive)

// query Retrieve growth inhibition measured for CCOC(=O)C1(C)CCCC1N (configuration not stated) and print it.
// result 2% (inactive)

***
// query Note growth inhibition for the compound shown: CCCCCCCCC(=O)OCCCC(CCC(CCC1CCCO1)OC(=O)CCCCCCCC)OC(=O)CCCCCCCC (configuration not stated)
// result 3% (inactive)

// query Please report the measured growth inhibition for C[C@@]1(CO)[C@H](O)CC[C@@]2(C)[C@H]1CC[C@H]1C[C@@H]3C[C@@]12CC[C@@]3(O)COC(=O)CN
// result -1% (inactive)

// query Find the measured growth inhibition of N#CC(=C1SCS1)[N+](=O)[O-] and report it.
// result 98% (active)

// query Write down growth inhibition measured for item CCOC(=O)C1=NN(c2ccccc2)C(=O)/C1=C\N1C(=O)/C(=C/c2cccc(O)c2)SC1=S
// result -16% (inactive)

// query Identify growth inhibition associated with the compound OC(CSc1ccccc1)CN1CCN(c2ccc(Cl)cc2)CC1 (configuration not stated)
// result 5% (inactive)

// query Find the measured growth inhibition of O=C1CCC2(C=C(Br)C(=O)C(Br)=C2)O1 and report it.
// result 46% (inactive)

// query Supply growth inhibition value. Item: CCC(C)C(N)C(=O)NC(CC(N)=O)C(=O)NC(CC(C)C)C(=O)NC(CCCCN)C(=O)NC(C)C(=O)NC(CC(C)C)C(=O)NC(C)C(=O)NC(C)C(=O)NC(CC(C)C)C(=O)NC(C)C(=O)NC(CCCCN)C(=O)NC(CCCCN)C(=O)NC(C(=O)NC(CC(C)C)C(N)=O)C(C)CC (configuration not stated)
// result 6% (inactive)

// query Give a short answer stating reported growth inhibition for CC(=O)Nc1ccc(C(=O)CCl)cc1 .
// result 96% (active)

// query Give the value of growth inhibition reported for the following: CN(C)c1ccc(/C=C/c2ccnc3ccccc23)cc1
// result 0% (inactive)

// query Please supply the value of reported growth inhibition for the item Nc1ncnc2c(C3OC(CO)C(O)C3O)c[nH]c12 (configuration not stated)
// result 14% (inactive)

// query Provide measured growth inhibition value, entry: O=C(NOC(=O)c1ccccc1)c1ccccc1
// result 64% (inactive)

// query Give recorded growth inhibition. O=C1/C(=C/c2ccccn2)CCc2ccccc21
// result 17% (inactive)

// query Recall and state the measured growth inhibition for COc1cccc(NC(=O)C(C#N)=C(SC)SC)c1 .
// result 25% (inactive)

// query Tell me its growth inhibition given CC(C)(C)CC(C)(C)c1ccc(OCCOCCSC(=N)N)cc1 as the entry.
// result -3% (inactive)

// query Give growth inhibition for O=C(OC12CC3CC(CC(C3)C1)C2)c1ccc(NCc2cc(O)ccc2O)cc1
// result 28% (inactive)

---

assay: NCI Yeast Anticancer Drug Screen. Data for the bub3 strain (AID 167)
conditions: S. cerevisiae bub3 mutant strain, at 5.0 µM (retest, dose inferred, filed as 0.5), hits give high values
The panel holds about 79,000 compounds, 15% with a hit somewhere; the sample as a whole holds those more often.
Known growth inhibition of a selection of compounds
Numeric answer only, unit % assumed.

// query Respond only with growth inhibition recorded for Cc1ccccc1NC(=O)Cc1csc2[n+]1C(=O)/C(=C/c1ccc([N+](=O)[O-])cc1)S2
// result 8

// query Give me measured growth inhibition, please, for this compound: CN(C)c1ccc(/C=C/c2cc[n+](C)c(/C=C/c3ccc(N(C)C)cc3)c2)cc1
// result 96

// query Fill in growth inhibition for record CC(C)CNC(=O)C(C)O (centres undefined)
// result 0

// query Indicate the recorded growth inhibition value for this compound: N#C/C(=N\Nc1ccc(Cl)cc1)C(=O)C1CC1
// result 51

Further cases:
// query Check the records and state growth inhibition for CCC(C)(O)Cc1ccc(Cl)cc1 (centres undefined)
// result -6

// query Fill in growth inhibition for record Cc1cc2nc(CC(=O)c3ccncc3)c(=O)[nH]c2cc1C
// result -5

// query Specify measured growth inhibition for COc1ccc2nc3cc([N+](=O)[O-])ccc3c(NNc3ccccc3)c2c1 .
// result 3

// query Let me know recorded growth inhibition for O=C(/C=C/c1ccccc1)CCC1C(=O)c2ccccc2C1=O , thanks.
// result 12

// query Please report growth inhibition for the following compound: CCC(C)C(N)C(=O)NC(CC(N)=O)C(=O)NC(CC(C)C)C(=O)NC(CCCCN)C(=O)NC(C)C(=O)NC(CC(C)C)C(=O)NC(C)C(=O)NC(C)C(=O)NC(CC(C)C)C(=O)NC(C)C(=O)NC(CCCCN)C(=O)NC(CCCCN)C(=O)NC(C(=O)NC(CC(C)C)C(N)=O)C(C)CC (centres undefined)
// result -6

---

assay: NCI Yeast Anticancer Drug Screen. Data for the mlh1 rad18 strain (AID 175)
conditions: S. cerevisiae mlh1 rad18 strain growth inhibition; at 50.0 µM (retest, dose inferred, filed as 5.0); hits give high values
Description: Growth inhibition of yeast strains with defined genetic alterations is measured as a screen for potential anti-cancer activity. Selected strains with alterations in DNA damage repair or cell cycle control were exposed to compounds and growth inhibition was measured relative to vehicle treated controls. The strain used in this assay is mlh1 rad18
The panel holds about 79,000 compounds, 15% with a hit somewhere; the sample as a whole holds those more often.
# if value of growth inhibition reaches 80%, tag yes (1); if it stays below, tag no (0)

// query Reported growth inhibition reaches at least 80% for S=C(S)OCN1CCOCC1 ?
// result no (0)

// query Hi team, for Cc1ccc2c(c1)sc(-c1ccc(N(C)C)cc1)[n+]2C , is the recorded growth inhibition at or above 80%?
// result yes (1)

// query Quick check, growth inhibition >= 80%? Cc1ccc(NC(=S)C#N)cc1Cl
// result no (0)

// query Textbook exercise: given the entry CN1CCc2cc3c(c4c2C1C(O)c1ccccc1-4)OCO3 (stereo unspecified) , state whether its growth inhibition is greater than or equal to 80%.
// result no (0)

// query Does growth inhibition meet or surpass 80% for O=C1C=CC(=O)C2=C1CC=CC2 ?
// result yes (1)

More entries:
// query Is growth inhibition for O=C(/C(Cl)=N/O)c1ccc(-c2ccccc2)cc1 at or above 80%?
// result yes (1)

// query Threshold query (growth inhibition >= 80%) on O=[N+]([O-])c1ccc(C2N(Cc3ccc(Cl)cc3)CCN2Cc2ccc(Cl)cc2)cc1
// result yes (1)

// query Quick check: does CCCCC(=O)c1ccc([N+](=O)[O-])o1 have growth inhibition greater than or equal to 80%?
// result yes (1)

// query Please check the record CC1=CC[C@@H]2[C@@H](CC[C@@]2(C)O)C(C)(C)[C@H]1CC[C@@H]1[C@@]2(C)CCC(=O)C(C)(C)O[C@@H]2CC[C@]1(C)O and state if its growth inhibition is at or above 80%.
// result no (0)
